experiment: gradient 5% acetonitrile 3 min, to 50% in 2 min, to 85% in 15 min, held 3 min, 100 µL/min; conditions: column: Zorbax Extend-C18 2.1 x 50 mm; eluents: water / acetonitrile, 0.1% formic acid
reported.endpoint: RP-LC retention time
# do not omit the unit; it follows the number

>  <mol.smiles>
CC1=C(c2ccccc2)S(=O)(=O)N=C1N1CCCN(C(=O)C2CCCC2)CC1

>  <measurement>
814 s

$$$$

Look at each compound and report its RP-LC retention time.
1. CCCCn1c(=O)c2ccccc2n(Cc2nc(-c3ccc(F)c(Cl)c3)no2)c1=O
2. CN1C(=O)Cc2cc(C(=O)NC3CCCCC3)ccc21
3. Cc1[nH]c(C(=O)N2CCN(c3cccc(Cl)c3)CC2)c(C)c1S(=O)(=O)N1CCOCC1

1290 s
692 s
883 s

Would you kindly share the measured RP-LC retention time for COc1ccc(CNC(=O)C2=C3CCCN3c3ccc(F)cc3S2(=O)=O)cc1OC ?
764 s
